List of butyrylcholinesterase inhibitory activity inhibition ratio (%) values.
Molecular target: butyrylcholinesterase (Rattus norvegicus, UniProt Q9JKC1)
Construct: Butyrylcholinesterase: rat serum; from tissue; host or cells: rat serum
Sequence (Q9JKC1 24-597): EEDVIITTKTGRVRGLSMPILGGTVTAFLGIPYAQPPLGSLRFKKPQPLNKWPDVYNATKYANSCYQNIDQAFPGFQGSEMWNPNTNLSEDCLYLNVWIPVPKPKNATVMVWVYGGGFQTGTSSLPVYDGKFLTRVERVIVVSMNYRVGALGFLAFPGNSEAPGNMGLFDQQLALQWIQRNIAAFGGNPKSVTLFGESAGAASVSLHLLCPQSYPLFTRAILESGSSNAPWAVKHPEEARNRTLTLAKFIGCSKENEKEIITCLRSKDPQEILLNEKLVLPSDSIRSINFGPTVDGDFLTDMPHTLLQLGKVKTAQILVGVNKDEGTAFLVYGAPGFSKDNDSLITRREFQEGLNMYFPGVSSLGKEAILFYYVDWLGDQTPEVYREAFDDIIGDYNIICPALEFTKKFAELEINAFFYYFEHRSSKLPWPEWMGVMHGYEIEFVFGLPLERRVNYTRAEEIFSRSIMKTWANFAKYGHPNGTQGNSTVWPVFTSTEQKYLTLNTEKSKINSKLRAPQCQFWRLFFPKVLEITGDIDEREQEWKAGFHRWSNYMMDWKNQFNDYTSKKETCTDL
Assay: inhibition of butyrylcholinesterase (rat serum)
Type: biochemical
Details: rat serum enzyme; final concentration 4×10−5 mol/L
Experimental: Sample processing: All samples were formulated as 10-2 mol/L solution by using 100% DMSO. 10-2 mol/L solution was used in microdetermination. 1 μL was taken to use in single tube experiment. Solvent control: 0.4% DMSO was used in microdetermination. The inhibition ratio of the sample was obtained wherein the effect of solvent was deducted. Butyrylcholinesterase: rat serum
Answer with a number only, understood to be in %.

Some solved entries appear below for comparison.
>>> number("COc1cc2c(cc1OC)C(=O)C(CC1(F)CCN(Cc3cc4c(cc3Br)OCO4)CC1)C2 (centres unmarked) [DC9]")
33.79
>>> number("COc1cc2c(cc1OC)C(=O)C(CC1(F)CCN(CCc3ccccc3F)CC1)C2 (centres unmarked) [DC111]")
71.58
>>> number("COc1cc2c(cc1OC)C(=O)C(CC1(F)CC3CCC(C1)N3Cc1cc(C)cc(C)c1)C2 (centres unmarked) [DC44]")
34.15
>>> number("COc1cc2c(cc1OC)C(=O)C(CC1(F)CCN(Cc3cccc(F)c3)CC1)C2 (centres unmarked) [DC21]")
75.02

Query string: I'd like to know its butyrylcholinesterase inhibitory activity inhibition ratio (%). The compound in question is COc1cc2c(cc1OC)C(=O)C(CC1(F)CCN(CC3CCCCCC3)CC1)C2 (centres unmarked) [DC34]
Result string: 68.48

Query string: Could you share which butyrylcholinesterase inhibitory activity inhibition ratio (%) value was measured for COc1cc2c(cc1OC)C(=O)C(CC1(F)CCN(CCc3ccccc3)CC1)C2 (centres unmarked) [DC110] ?
Result string: 66.30
